Value source: ChEMBL document CHEMBL1142729

assay-target: Carbonic anhydrase 2 (Homo sapiens, UniProt P00918)
measured-attribute: IC50 (nM)
Write the answer as a number in nM, unit excluded.

Known value: Carbonic anhydrase 2 (Homo sapiens, UniProt P00918) IC50 of the compound `NS(=O)(=O)OCC1Oc2ccccc2O1` equals 280
